targetSystem: human orexin type 2 receptor (Homo sapiens)
Construct: expressed in transfected cells
Sequence (O43614 1-444): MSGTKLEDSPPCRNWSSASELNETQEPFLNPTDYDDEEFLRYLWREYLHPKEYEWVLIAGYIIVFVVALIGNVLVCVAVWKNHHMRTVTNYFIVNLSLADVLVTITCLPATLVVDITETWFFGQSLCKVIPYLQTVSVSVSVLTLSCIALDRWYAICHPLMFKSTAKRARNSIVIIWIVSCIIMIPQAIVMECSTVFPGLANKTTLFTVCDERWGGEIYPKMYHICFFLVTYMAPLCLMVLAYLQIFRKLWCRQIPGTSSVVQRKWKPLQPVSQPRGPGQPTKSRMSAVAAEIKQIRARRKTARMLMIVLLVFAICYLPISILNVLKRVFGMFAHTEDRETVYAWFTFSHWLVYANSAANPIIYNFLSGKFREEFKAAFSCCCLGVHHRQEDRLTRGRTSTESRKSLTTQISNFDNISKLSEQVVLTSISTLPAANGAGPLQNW
assayName: Measurement of orexin type 2 receptor agonist activity (calcium fluorescence, Fluo-4 AM, FDSS)
Type: cell-based
conditionDetails: test compound 3 μM; CHO cells expressing human OX2 receptor; DMSO = 0%, orexin A (human) = 100%
# binarize OX2R agonist activity (3 μM, %): threshold 90% inclusive, high side T, low side F

compound | qualitativeLabel
CS(=O)(=O)N[C@H]1CCCN(C(=O)C2CC2c2cccc(F)c2-c2c(F)cccc2F)C1 (mixture of isomers) | T
CS(=O)(=O)NC1CCCN(C(=O)C2CC2c2c(F)cccc2-c2ccccc2)CC1 (racemic) | F
CS(=O)(=O)NC[C@@H]1CN(C(=O)[C@@H]2C[C@H]2c2ccccc2-c2c(F)cccc2F)CCO1 | T
CC(NS(C)(=O)=O)[C@@H]1[C@H](F)CN1C(=O)[C@@H]1C[C@@]1(F)c1ccccc1-c1c(F)cccc1F (some centres unmarked) | T
CS(=O)(=O)N[C@H]1CCCN(C(=O)[C@@H]2C[C@H]2c2ccccc2-c2c(F)cccc2F)C1 | T
CC1(C(=O)N2CC[C@H]2CNS(C)(=O)=O)CC1(F)c1ccccc1-c1c(F)cccc1F (some centres unmarked) | F
CS(=O)(=O)NCC1CCN1C(=O)C1CC1c1ccccc1-c1c(F)cccc1F (racemic) [Example 127] | F
CCS(=O)(=O)NCC1CCN1C(=O)C1CC1c1ccccc1-c1c(F)cccc1F (racemic) | T

====

targetSystem: human orexin type 2 receptor (Homo sapiens)
Construct: expressed in transfected cells
assayName: Measurement of orexin type 2 receptor agonist activity (calcium fluorescence, Fluo-4 AM, FDSS)
Assay type: cell-based
conditionDetails: test compound 3 μM; CHO cells expressing human OX2 receptor; DMSO = 0%, orexin A (human) = 100%

molecule | OX2R agonist activity (3 μM, %)
CS(=O)(=O)NC1CCCN(C(=O)C2CC2c2ccc(F)cc2-c2c(F)cccc2F)C1 (racemic) | 95
O=C(C1CC1c1ccccc1-c1c(F)cccc1F)N1CCC(NS(=O)(=O)C2CC2)C1 (racemic) | 101
CS(=O)(=O)NC1CCCN(C(=O)C2CC2c2ccccc2-c2cccc(F)c2F)C1 (racemic) | 89
CS(=O)(=O)NC[C@@H]1[C@H](F)CN1C(=O)C1(CC#N)CC1c1ccccc1-c1c(F)cccc1F (some centres unmarked) | 53
CS(=O)(=O)N[C@H]1CCCCN(C(=O)C2CC2(F)c2ccccc2-c2c(F)cccc2F)C1 (mixture of isomers) | 93
O=C([C@@H]1C[C@H]1c1ccccc1-c1c(F)cccc1F)N1CC[C@H](NS(=O)(=O)N2CCC2)C1 | 89
CS(=O)(=O)NC[C@H]1[C@H](CO)CN1C(=O)[C@@H]1C[C@@]1(F)c1ccccc1-c1c(F)cccc1F | 97
C[C@@H]1CN(C(=O)C2CC2(F)c2c(F)cccc2-c2c(F)cccc2F)[C@@H]1CNS(C)(=O)=O (some centres unmarked) | 99
CS(=O)(=O)N[C@H]1CCCN(C(=O)C2CC2c2ccc(F)cc2-c2c(F)cccc2F)C1 (some centres unmarked) | 101
CC[C@@H]1CN(C(=O)[C@@H]2C[C@@]2(F)c2ccccc2-c2c(F)cccc2F)[C@@H]1CNS(C)(=O)=O | 92
CS(=O)(=O)N[C@H]1CCN(C(=O)C2(F)CC2c2ccccc2-c2c(F)cccc2F)C1 (some centres unmarked) | 96
CCS(=O)(=O)NC1CCCN(C(=O)C2CC2c2ccccc2-c2c(F)cccc2F)CC1 (racemic) | 101
CS(=O)(=O)NCC1CN(C(=O)C2CC2c2ccccc2-c2c(F)cccc2F)CCC1(F)F (racemic) | 57
CS(=O)(=O)NC[C@@H]1[C@H](CF)CN1C(=O)[C@@H]1C[C@@]1(F)c1ccccc1-c1c(F)cccc1F | 97
COCC1(C(=O)N2CC[C@H]2CNS(C)(=O)=O)CC1c1ccccc1-c1c(F)cccc1F (some centres unmarked) | 95
CS(=O)(=O)NC[C@@H]1CCN1C(=O)C1CC1c1c(-c2c(F)cccc2F)csc1F (some centres unmarked) | 93
CS(=O)(=O)NC1CCCN(C(=O)C2CC2c2ncccc2-c2c(F)cccc2F)C1 (racemic) | 67

Cited source: patent US20250250230A1
